- system: Mineralocorticoid receptor (Homo sapiens, UniProt P08235, C808S)
- Sequence (P08235 whole entry C808S): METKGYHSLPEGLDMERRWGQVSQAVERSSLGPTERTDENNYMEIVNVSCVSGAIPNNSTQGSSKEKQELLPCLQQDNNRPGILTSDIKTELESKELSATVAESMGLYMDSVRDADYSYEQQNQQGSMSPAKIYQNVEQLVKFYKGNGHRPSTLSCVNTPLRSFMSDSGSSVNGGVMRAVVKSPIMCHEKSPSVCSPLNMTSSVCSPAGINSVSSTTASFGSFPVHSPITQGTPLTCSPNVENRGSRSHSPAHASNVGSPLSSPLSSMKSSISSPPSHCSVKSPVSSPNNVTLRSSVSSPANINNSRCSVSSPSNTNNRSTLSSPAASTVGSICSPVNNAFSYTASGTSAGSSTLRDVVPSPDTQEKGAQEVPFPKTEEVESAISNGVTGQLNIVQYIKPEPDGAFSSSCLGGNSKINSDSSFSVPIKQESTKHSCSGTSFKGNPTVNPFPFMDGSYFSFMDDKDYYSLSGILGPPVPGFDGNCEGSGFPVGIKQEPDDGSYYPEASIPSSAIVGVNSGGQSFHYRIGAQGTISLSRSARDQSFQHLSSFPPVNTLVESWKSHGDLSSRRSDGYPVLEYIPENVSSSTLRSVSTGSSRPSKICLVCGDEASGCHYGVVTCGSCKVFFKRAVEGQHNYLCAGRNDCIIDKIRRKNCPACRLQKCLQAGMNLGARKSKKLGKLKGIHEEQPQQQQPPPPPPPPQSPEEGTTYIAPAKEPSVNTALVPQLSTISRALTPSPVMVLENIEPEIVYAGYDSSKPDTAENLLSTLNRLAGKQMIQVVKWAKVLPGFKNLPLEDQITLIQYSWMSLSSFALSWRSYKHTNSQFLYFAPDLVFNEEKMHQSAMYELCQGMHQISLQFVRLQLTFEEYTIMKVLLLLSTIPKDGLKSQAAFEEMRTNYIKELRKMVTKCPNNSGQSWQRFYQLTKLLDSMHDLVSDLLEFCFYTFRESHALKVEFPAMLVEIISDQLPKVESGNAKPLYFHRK
Binary label based on Ki with cut-off 20 nM: below gives T, not below gives F.

| molecule | category |
| --- | --- |
| O=C1Nc2cc(CN3c4ccccc4COc4cc(F)ccc43)ccc2C12CCNCC2 | F |
| O=C(c1ccc2c(c1)NC(=O)C21CCNCC1)N1c2ccccc2COc2cc(F)ccc21 | F |
| O=C1COc2ccc(/C=C3\c4ccccc4COc4cc(F)ccc43)cc2N1 | T |
| CN(C)CC(=O)N1CCC2(CC1)C(=O)Nc1cc(/C=C3\c4ccccc4COc4cc(F)ccc43)ccc12 | T |
| O=C1Nc2cc(S(=O)(=O)N3c4ccccc4COc4cc(F)ccc43)ccc2C12CCNCC2 | F |
| O=C(O)CCN1CCC2(CC1)C(=O)Nc1cc(/C=C3\c4ccccc4COc4cc(F)ccc43)ccc12 | T |

Task: Given the entry CC1(C)OC(=S)Nc2ccc(S(=O)(=O)N3c4ccccc4COc4cc(F)ccc43)cc21 , would its reported Ki be below 20 nM?
Result: T

Task: Given the entry CN(Cc1ccc2c(c1)NC(=O)CO2)c1ccc(F)cc1F , would its reported Ki be below 20 nM?
Result: F

Task: Given the entry O=S1(=O)Cc2ccc(/C=C3\c4ccccc4COc4cc(F)ccc43)cc2N1 , would its reported Ki be below 20 nM?
Result: F

Task: Given the entry CN1CCC2(CC1)C(=O)Nc1cc(/C=C3\c4ccccc4COc4cc(F)ccc43)ccc12 , would its reported Ki be below 20 nM?
Result: T

Task: Given the entry OC1CCc2c(/C=C3\c4ccccc4COc4cc(F)ccc43)cccc21 (centres undefined) , would its reported Ki be below 20 nM?
Result: T

* * *

Property: inhibition at 10 µM; scope: individual molecules
- system: hERG (KCNH2) (Homo sapiens, UniProt Q12809)
- Sequence (Q12809 whole entry): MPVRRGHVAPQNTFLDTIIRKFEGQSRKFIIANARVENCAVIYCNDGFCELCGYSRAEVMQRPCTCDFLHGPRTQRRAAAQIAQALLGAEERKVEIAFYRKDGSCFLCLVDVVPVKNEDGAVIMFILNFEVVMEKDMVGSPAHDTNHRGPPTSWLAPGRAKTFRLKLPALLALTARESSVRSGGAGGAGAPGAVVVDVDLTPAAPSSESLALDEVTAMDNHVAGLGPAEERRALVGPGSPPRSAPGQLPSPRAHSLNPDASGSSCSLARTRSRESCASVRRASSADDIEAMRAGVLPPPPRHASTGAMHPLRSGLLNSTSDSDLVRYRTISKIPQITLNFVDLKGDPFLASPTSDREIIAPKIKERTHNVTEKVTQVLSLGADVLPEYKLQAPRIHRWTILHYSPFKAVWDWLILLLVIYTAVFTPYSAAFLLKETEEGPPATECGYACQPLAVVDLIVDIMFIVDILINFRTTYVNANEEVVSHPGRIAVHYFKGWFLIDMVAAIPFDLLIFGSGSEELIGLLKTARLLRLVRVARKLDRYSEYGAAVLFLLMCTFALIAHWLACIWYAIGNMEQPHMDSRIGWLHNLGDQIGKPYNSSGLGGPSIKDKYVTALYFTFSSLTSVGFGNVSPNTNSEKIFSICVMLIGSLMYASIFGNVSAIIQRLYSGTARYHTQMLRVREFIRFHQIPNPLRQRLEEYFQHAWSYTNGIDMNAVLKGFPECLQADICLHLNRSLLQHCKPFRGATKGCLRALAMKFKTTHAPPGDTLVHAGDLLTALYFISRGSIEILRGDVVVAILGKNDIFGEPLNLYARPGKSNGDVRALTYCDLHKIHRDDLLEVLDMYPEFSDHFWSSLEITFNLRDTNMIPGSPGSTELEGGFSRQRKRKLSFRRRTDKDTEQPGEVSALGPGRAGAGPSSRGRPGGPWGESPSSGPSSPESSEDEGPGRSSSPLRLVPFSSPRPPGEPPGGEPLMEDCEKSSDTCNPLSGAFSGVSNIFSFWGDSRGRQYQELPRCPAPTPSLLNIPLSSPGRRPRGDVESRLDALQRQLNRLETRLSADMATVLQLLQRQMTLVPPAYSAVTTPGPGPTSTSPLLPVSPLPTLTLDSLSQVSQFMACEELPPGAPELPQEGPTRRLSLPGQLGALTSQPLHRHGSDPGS
- assay.remarks: Inhibition of human ERG (unknown origin) at 10 uM
Hi! Could you send only the number? It should be in %, unit omitted.

Below: 8 molecules and their reported inhibition at 10 µM.
| molecule | system | result.unit | inhibition at 10 µM |
| --- | --- | --- | --- |
| O=C1COc2ccc(CN3c4ccccc4COc4cc(F)ccc43)cc2N1 | hERG (KCNH2) (Homo sapiens, UniProt Q12809) | % | 29 |
| O=C(O)CCN1CCC2(CC1)C(=O)Nc1cc(/C=C3\c4ccccc4COc4cc(F)ccc43)ccc12 | hERG (KCNH2) (Homo sapiens, UniProt Q12809) | % | 32 |
| CN(C)CC(=O)N1CCC2(CC1)C(=O)Nc1cc(/C=C3\c4ccccc4COc4cc(F)ccc43)ccc12 | hERG (KCNH2) (Homo sapiens, UniProt Q12809) | % | 98 |
| O=C1COc2ccc(/C=C3\c4ccccc4COc4cc(F)ccc43)cc2N1 | hERG (KCNH2) (Homo sapiens, UniProt Q12809) | % | 26 |
| O=c1[nH]c2cc(/C=C3\c4ccccc4COc4cc(F)ccc43)ccc2n1[C@@H]1C[C@@H]2COCCN2C1 | hERG (KCNH2) (Homo sapiens, UniProt Q12809) | % | 62 |
| CN1CCC2(CC1)C(=O)Nc1cc(/C=C3\c4ccccc4COc4cc(F)ccc43)ccc12 | hERG (KCNH2) (Homo sapiens, UniProt Q12809) | % | 78 |
| CC1(C)OC(=S)Nc2ccc(S(=O)(=O)N3c4ccccc4COc4cc(F)ccc43)cc21 | hERG (KCNH2) (Homo sapiens, UniProt Q12809) | % | 48 |
| C[N+]1([O-])CCC2(CC1)C(=O)Nc1cc(/C=C3\c4ccccc4COc4cc(F)ccc43)ccc12 (centres undefined) | hERG (KCNH2) (Homo sapiens, UniProt Q12809) | % | 55 |

Turning now to a further molecule:
Task: Supply recorded inhibition at 10 µM for O=C1COc2ccc(S(=O)(=O)N3c4ccccc4COc4cc(F)ccc43)cc2N1 here.
Result: 28
